Value source: paper PMC10247784

Target: mouse Tas2r108 (Mus musculus, UniProt Q9JKT3)
Construct: expressed in transfected cells; host or cells: HEK293T-Gα16gust44
Sequence (Q9JKT3 1-297): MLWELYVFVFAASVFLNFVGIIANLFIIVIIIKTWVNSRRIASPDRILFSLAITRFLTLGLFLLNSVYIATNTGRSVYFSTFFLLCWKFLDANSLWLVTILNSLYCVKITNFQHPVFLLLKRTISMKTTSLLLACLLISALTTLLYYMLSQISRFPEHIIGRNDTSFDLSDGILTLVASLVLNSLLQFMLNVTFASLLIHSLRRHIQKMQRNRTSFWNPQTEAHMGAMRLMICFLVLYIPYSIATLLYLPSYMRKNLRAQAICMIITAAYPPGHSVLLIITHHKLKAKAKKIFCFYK
Experiment: Calcium imaging assay (FLIPR), HEK293T-Gα16gust44 cells transfected with mouse Tas2r108
Type: cell-based
Conditions: p < 0.01 vs empty vector
Measured Endpoint: Activation threshold concentration Tas2r108 (µM)
Kindly provide the numeric value in µM only, without the unit symbol.

structure=C[C@H](CCC(=O)NCCS(=O)(=O)O)[C@H]1CC[C@H]2[C@@H]3CC[C@@H]4C[C@H](O)CC[C@]4(C)[C@H]3CC[C@]12C value_reported=1
structure=C[C@H](CCC(=O)O)[C@H]1CC[C@H]2[C@@H]3CC[C@@H]4C[C@H](O)CC[C@]4(C)[C@H]3C[C@H](O)[C@]12C value_reported=10
structure=C[C@H](CCC(=O)O)[C@H]1CC[C@H]2[C@@H]3[C@H](O)C[C@@H]4C[C@H](O)CC[C@]4(C)[C@H]3C[C@H](O)[C@]12C value_reported=100
structure=C[C@H](CCC(=O)NCCS(=O)(=O)O)[C@H]1CC[C@H]2[C@@H]3[C@H](O)C[C@@H]4C[C@H](O)CC[C@]4(C)[C@H]3C[C@H](O)[C@]12C value_reported=100

Now consider the entry below.
# input So what does the record say about Activation threshold concentration Tas2r108 for C[C@H](CCC(=O)NCC(=O)O)[C@H]1CC[C@H]2[C@@H]3[C@H](O)C[C@@H]4C[C@H](O)CC[C@]4(C)[C@H]3C[C@H](O)[C@]12C ?
# output 100

---

molecular target: mouse Tas2r108 (Mus musculus, UniProt Q9JKT3); construct: expressed in transfected cells; host or cells: HEK293T-Gα16gust44; test: Calcium imaging assay (FLIPR), HEK293T-Gα16gust44 cells transfected with mouse Tas2r108; assay type: cell-based; conditions: Time 245.562 s
Below, each entry is listed alongside its reported RLU.
// return the numeric value with its unit appended

Worked cases, RLU given:
structure=C[C@H](CCC(=O)O)[C@H]1CC[C@H]2[C@@H]3CC[C@@H]4C[C@H](O)CC[C@]4(C)[C@H]3C[C@H](O)[C@]12C value_reported="495.953 RLU"
structure=C[C@H](CCC(=O)NCCS(=O)(=O)O)[C@H]1CC[C@H]2[C@@H]3[C@H](O)C[C@@H]4C[C@H](O)CC[C@]4(C)[C@H]3C[C@H](O)[C@]12C value_reported="237.626 RLU"
structure=C[C@H](CCC(=O)NCC(=O)O)[C@H]1CC[C@H]2[C@@H]3[C@H](O)C[C@@H]4C[C@H](O)CC[C@]4(C)[C@H]3C[C@H](O)[C@]12C value_reported="173.351 RLU"

Consider now this further molecule.
# input Please state recorded RLU (tested on mouse Tas2r108 (Mus musculus, UniProt Q9JKT3)) of C[C@H](CCC(=O)O)[C@H]1CC[C@H]2[C@@H]3[C@H](O)C[C@@H]4C[C@H](O)CC[C@]4(C)[C@H]3C[C@H](O)[C@]12C
# output 142.097 RLU
